Target: T1, H198P/D320A E. coli DegS (residues 27-355) (E. coli, UniProt P0AEE3 27-355, H198P | D320A)
T1 sequence (looked up): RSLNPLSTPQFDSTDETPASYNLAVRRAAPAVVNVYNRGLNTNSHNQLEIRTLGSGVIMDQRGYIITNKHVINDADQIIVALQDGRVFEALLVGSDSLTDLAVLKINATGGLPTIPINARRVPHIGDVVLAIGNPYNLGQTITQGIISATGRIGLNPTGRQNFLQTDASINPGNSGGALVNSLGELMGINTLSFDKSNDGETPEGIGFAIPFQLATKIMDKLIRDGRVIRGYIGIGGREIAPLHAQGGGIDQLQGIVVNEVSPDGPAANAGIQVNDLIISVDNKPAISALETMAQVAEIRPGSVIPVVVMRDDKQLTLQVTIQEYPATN
Experiment: fluorescence polarisation
Where no end group is shown, it is not given here. fluorescein = fluorescein-β-alanine label at the N-terminus; βAla = NCCC(=O)O
OBSERVABLE: Kd (nM)
Use nM as the unit, but write only the number.

Exam item: Annotate the binder {fluorescein-βAla}-KKDNRDGNYYF [fluorescein-β-alanine-KKDNRDGNYYF OMP peptide] with its measured Kd.
Marked response: 450
